target: Human MMP9 (Homo sapiens); construct: made in house; assay: Isolated enzyme assay, MMP9; type: biochemical
Sequence (P14780 94-707): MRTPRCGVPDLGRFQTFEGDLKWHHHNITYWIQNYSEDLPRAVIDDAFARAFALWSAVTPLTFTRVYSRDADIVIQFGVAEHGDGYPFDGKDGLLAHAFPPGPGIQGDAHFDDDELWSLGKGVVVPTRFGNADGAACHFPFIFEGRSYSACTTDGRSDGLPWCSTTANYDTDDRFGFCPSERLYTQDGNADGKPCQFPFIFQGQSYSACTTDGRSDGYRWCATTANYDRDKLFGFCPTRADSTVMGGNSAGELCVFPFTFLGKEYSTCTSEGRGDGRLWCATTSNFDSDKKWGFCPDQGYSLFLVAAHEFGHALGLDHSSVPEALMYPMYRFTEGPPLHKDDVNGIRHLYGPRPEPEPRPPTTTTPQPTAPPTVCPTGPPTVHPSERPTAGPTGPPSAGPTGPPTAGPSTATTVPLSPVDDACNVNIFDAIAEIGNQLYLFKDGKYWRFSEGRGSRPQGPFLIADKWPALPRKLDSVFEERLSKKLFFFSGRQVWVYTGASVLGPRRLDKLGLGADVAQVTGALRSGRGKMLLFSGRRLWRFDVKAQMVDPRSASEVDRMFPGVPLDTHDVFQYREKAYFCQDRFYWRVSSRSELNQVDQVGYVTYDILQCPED
pIC50: −log10 of the molar value.
experimental_readout: pIC50

>  <compound>
O=c1[nH]nc(CS(=O)(=O)N2CCN(c3ccc(Cl)cc3)CC2)[nH]1 [Example 4]

>  <measured>
6.38

$$$$

P = O=c1[nH]nc(CCS(=O)(=O)N2CCC(Oc3ccc(Cl)cn3)CC2)[nH]1 [Example 2]
Q = O=c1[nH]nc(CS(=O)(=O)N2CC=C(C#Cc3cnc(C(F)(F)F)nc3)CC2)[nH]1 [Example 6]
Challenge: # compare pIC50 for P vs Q ; return the one with the smaller value Your answer should be the label of the entry you select.
Response given: P

###

biological target: Human MMP2 (Homo sapiens); assay: Isolated enzyme assay, MMP2
Sequence (P08253 110-660): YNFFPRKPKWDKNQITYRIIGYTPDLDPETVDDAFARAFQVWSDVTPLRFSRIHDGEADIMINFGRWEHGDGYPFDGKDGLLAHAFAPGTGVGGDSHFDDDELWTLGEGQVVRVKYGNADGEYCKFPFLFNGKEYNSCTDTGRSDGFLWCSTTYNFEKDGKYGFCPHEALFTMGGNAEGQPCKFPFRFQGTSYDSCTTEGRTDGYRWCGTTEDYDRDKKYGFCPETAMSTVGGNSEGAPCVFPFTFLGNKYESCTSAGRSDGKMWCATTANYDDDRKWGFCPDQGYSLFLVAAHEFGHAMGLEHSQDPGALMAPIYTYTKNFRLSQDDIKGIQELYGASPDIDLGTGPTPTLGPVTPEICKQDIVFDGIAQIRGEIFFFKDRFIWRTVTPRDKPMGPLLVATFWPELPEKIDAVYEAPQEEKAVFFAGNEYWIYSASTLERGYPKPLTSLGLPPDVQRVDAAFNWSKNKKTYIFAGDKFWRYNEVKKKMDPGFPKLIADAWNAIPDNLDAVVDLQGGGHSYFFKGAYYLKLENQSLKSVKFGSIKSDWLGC
pIC50: −log10 of the molar value.
experimental_readout: pIC50

P = O=c1[nH]nc(CCS(=O)(=O)N2CCC(Oc3ccc(Cl)cn3)CC2)[nH]1
Q = O=c1[nH]nc(CS(=O)(=O)N2CCN(c3ccc(Cl)cc3)CC2)[nH]1
R = O=c1[nH]nc(CS(=O)(=O)N2CC=C(C#Cc3cnc(C(F)(F)F)nc3)CC2)[nH]1
Challenge: Please list the entries, largest pIC50 first. Hello, could you send the labels back in the order asked? Thank you.
Response given: Q, R, P
(Q: 6.85, R: 6.58, P: 6.00)

###

target: Human MMP12 (Homo sapiens, UniProt P39900); construct: Recombinant human MMP12 catalytic domain may be expressed and purified as described by Parkar A. A. et al; test: Isolated enzyme assay, MMP12 catalytic domain, fluorogenic substrate; details: recombinant human MMP12 catalytic domain
Sequence (P39900 106-263 limits assumed): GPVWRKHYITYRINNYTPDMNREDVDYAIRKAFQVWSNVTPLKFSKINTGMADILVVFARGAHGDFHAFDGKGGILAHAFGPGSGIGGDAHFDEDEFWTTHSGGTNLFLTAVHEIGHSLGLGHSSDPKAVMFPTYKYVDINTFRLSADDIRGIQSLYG
pIC50: −log10 of the molar value.
experimental_readout: pIC50

A = O=c1[nH]nc(CS(=O)(=O)N2CCN(c3ccc(Cl)cc3)CC2)[nH]1
B = O=c1[nH]nc(CCS(=O)(=O)N2CCC(Oc3ccc(Cl)cn3)CC2)[nH]1
C = O=c1[nH]nc(CS(=O)(=O)N2CC=C(C#Cc3cnc(C(F)(F)F)nc3)CC2)[nH]1
Challenge: Sort the compounds on pIC50; start with the lowest figure. Hello, could you send the labels back in the order asked? Thank you.
Response given: B, A, C
(B: 7.19, A: 7.74, C: 8.62)

###

biological target: Human MMP14 (Homo sapiens); test: Isolated enzyme assay, MMP14
experimental_readout: IC50 (µM)

>  <compound>
O=c1[nH]nc(CCS(=O)(=O)N2CCC(Oc3ccc(Cl)cn3)CC2)[nH]1 [Example 2]

>  <measure_unit>
µM

>  <measured>
6.66

$$$$

a = O=c1[nH]nc(CS(=O)(=O)N2CC=C(C#Cc3cnc(C(F)(F)F)nc3)CC2)[nH]1 [Example 6]
b = O=c1[nH]nc(CS(=O)(=O)N2CCN(c3ccc(Cl)cc3)CC2)[nH]1 [Example 4]
Challenge: Select one: a or b . Criterion: greater recorded IC50. Your answer should be the label of the entry you select.
Response given: a

###

Biological target: Human MMP19 (Homo sapiens, UniProt Q99542)
Sequence (Q99542 98-508): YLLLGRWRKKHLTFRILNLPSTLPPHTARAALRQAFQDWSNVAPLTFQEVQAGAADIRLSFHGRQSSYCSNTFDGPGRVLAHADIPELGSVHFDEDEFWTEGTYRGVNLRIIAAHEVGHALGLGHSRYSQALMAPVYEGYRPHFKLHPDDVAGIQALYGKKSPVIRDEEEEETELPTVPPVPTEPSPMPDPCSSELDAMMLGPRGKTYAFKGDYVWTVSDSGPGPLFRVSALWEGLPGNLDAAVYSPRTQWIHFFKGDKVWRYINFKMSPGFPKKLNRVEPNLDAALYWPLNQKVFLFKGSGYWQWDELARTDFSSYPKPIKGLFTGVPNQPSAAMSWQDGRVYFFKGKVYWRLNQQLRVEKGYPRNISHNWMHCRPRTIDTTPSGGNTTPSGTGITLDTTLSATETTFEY
Assay: Isolated enzyme assay, MMP19
experimental_readout: IC50 (nM)

A = O=c1[nH]nc(CS(=O)(=O)N2CCN(c3ccc(Cl)cc3)CC2)[nH]1 [Example 4]
B = O=c1[nH]nc(CS(=O)(=O)N2CC=C(C#Cc3cnc(C(F)(F)F)nc3)CC2)[nH]1 [Example 6]
Challenge: # compare IC50 for A vs B ; return the one with the smaller value Your answer should be the label of the entry you select.
Response given: A
